Entries and their measured cytotoxicity at 70.5 h follow.
- method: Human HepG2 cell viability assay in 384 well format
- Assay type: toxicity, cell-based
- Set-up: dose 125 nL, time 70.5 hour; concentration not given beside the values
- conditionsUsed: HepG2 cells, read-out: Inhibition
Give your result in % as a bare value.

molecule	cytotoxicity at 70.5 h, %
CN1CCC(c2nnc(CN3CCCCC3)n2C)CC1	-9.09
COc1ccc(CNc2cc3[nH]c(O)nc3cc2C)cc1	-5.05
O=C(Cc1csc(-c2ccccc2F)n1)NCc1ccc(C(=O)O)cc1	-10.6
COc1cccc(CN(C)C(=O)CN2CCN(c3nccn3C)CC2)c1	-6.12
O=C(NCc1ccco1)[C@@H]1CC[C@@H]2[C@@H](CCN2Cc2ccc(F)cc2)O1	-5.82

Give its cytotoxicity at 70.5 h value. Item: "COCC(=O)NCc1nn(CCN2CCCC2)c(=O)c2ccccc12"
29

Give its cytotoxicity at 70.5 h value. Item: CN1CC2(CCN(C(=O)c3ccc4c(=O)n(C)cnc4c3)C2)OC1=O (stereo unspecified)
8.11

Give its cytotoxicity at 70.5 h value. Item: O=C(N1CCCC(n2cncn2)C1)C1(c2cccc(F)c2)CCCC1 (stereo unspecified)
16.5

Give its cytotoxicity at 70.5 h value. Item: NCC(=O)N1CCCC(c2cncc(Nc3ncccn3)n2)C1 (stereo unspecified)
-13.9

Give its cytotoxicity at 70.5 h value. Item: CCn1nc(C)c(CN2CCC(c3ccc(C(=O)O)cc3)C2)c1C (stereo unspecified)
-2.74

Give its cytotoxicity at 70.5 h value. Item: "O=C(C1CC=CC1)N1C[C@@H]2[C@@H](C1)OCC(=O)N2Cc1cccnc1"
0.567

Provenance of the data: ChEMBL document CHEMBL3507680
